# assayed-target: F508delCFTR in primary hBE cells with F508del/F508del CFTR mutation (Homo sapiens, UniProt P13569, DEL508-508)
# Construct: cells isolated from CF patients with the homozygous mutation; endogenous in cells
# Sequence (P13569 with tags, fused parts or gaps DEL508-508): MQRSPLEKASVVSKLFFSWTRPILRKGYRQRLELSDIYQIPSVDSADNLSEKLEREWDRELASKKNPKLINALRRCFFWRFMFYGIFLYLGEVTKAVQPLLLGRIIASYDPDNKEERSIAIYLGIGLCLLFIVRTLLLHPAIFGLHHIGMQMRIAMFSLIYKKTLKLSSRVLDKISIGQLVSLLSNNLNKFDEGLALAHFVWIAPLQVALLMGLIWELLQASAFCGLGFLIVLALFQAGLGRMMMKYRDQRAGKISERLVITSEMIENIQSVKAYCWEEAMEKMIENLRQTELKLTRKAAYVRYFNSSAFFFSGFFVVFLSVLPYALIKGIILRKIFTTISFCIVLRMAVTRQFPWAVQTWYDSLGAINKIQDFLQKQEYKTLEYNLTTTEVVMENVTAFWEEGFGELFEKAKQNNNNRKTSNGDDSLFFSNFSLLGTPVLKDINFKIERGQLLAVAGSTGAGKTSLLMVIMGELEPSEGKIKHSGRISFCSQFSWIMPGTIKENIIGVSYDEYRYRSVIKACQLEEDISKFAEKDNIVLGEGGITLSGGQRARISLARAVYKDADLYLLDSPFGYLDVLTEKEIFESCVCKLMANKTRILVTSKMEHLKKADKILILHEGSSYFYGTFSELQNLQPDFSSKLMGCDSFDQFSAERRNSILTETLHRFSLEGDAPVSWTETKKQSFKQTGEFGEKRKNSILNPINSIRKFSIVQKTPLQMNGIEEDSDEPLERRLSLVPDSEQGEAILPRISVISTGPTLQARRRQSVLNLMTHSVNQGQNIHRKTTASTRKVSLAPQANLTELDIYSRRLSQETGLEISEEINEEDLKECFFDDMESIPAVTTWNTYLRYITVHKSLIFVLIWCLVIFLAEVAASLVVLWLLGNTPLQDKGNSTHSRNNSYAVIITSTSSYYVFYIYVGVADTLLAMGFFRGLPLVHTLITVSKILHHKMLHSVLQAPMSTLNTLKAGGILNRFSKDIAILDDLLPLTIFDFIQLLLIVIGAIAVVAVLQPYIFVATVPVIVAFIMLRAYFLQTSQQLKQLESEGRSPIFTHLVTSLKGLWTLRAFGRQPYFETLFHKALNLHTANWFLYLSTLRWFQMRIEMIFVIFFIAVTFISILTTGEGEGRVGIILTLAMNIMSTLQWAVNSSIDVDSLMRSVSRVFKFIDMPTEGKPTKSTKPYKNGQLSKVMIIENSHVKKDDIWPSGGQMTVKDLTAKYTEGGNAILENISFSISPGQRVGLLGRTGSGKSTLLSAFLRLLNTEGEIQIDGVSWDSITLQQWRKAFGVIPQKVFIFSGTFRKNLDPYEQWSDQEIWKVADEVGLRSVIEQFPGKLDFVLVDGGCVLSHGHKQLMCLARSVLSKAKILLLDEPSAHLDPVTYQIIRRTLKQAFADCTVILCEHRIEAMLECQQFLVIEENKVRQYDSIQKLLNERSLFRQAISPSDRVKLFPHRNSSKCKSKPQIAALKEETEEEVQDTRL
# measurement-description: Transepithelial Clamp Circuit on Human Bronchial Epithelial Cells Conductance Assay (hBE-TECC)
# applied-conditions: primary hBE cells F508del/F508del, 18-24 hours at 37° C., equivalent short circuit current, 6 concentrations
measured-attribute: EC50 (nM)

Use the examples below as a reference point.
>>> value_reported("C[C@]1(C(=O)N[C@@H]2C[C@H](c3ccc(CO)cn3)Oc3cc(OC(F)(F)F)ccc32)COc2cc3c(cc21)OC(F)(F)O3")
13
>>> value_reported("CCCN(CCO)C(=O)[C@H]1CC[C@H]([C@H]2C[C@@H](NC(=O)[C@@]3(C)COc4cc5c(cc43)OC(F)(F)O5)c3ccc(OC(F)(F)F)cc3O2)CC1")
4
>>> value_reported("C[C@]1(C(=O)Nc2cc3cc(C4(CO)CCC4)[nH]c3cc2F)COc2cc3c(cc21)OC(F)(F)O3")
98
>>> value_reported("Cc1ccc(NC(=O)[C@]2(C)CCc3c2ccc2c3OCO2)cc1-c1cccc(C(=O)O)c1 (single isomer, unassigned)")
564

1. C[C@]1(C(=O)N[C@@H]2C[C@H]([C@H]3CC[C@H](C(=O)O)CC3)Oc3cc(OC(F)(F)F)ccc32)COc2cc3c(cc21)OC(F)(F)O3
2. COc1ccc2c(c1)O[C@@H](c1ccc(C(=O)NCC(C)(C)O)cn1)C[C@H]2NC(=O)[C@@]1(C)COc2cc3c(cc21)OC(F)(F)O3
Response body: label of entry with the larger EC50; valid values 1 , 2 . Respond using the label that marks the chosen record. 2

Where do these numbers come from? They come from patent US9840513B2.
